UniProt P31645: reported AC50 for various compounds.
Sequence (P31645 whole entry): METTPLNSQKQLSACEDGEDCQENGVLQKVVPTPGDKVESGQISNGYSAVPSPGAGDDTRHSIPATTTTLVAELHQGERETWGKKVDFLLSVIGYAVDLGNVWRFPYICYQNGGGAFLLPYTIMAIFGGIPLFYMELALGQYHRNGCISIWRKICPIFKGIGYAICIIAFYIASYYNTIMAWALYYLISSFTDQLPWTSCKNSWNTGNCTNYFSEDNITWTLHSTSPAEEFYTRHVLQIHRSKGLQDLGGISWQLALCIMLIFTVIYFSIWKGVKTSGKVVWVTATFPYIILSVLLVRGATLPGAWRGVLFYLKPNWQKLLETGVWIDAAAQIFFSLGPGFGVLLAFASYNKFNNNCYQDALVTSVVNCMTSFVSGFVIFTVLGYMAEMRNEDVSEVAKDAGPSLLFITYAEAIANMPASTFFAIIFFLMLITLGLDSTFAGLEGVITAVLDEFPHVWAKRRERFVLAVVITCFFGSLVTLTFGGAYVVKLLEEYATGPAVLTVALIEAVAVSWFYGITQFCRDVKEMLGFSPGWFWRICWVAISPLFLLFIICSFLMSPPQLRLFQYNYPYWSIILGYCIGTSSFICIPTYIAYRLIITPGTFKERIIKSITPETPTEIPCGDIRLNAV

Compound	Assayed target	AC50
CC(=O)O[C@H]1C[C@H](O[C@H]2[C@@H](O)C[C@H](O[C@H]3[C@@H](O)C[C@H](O[C@H]4CC[C@@]5(C)[C@H](CC[C@@H]6[C@@H]5C[C@@H](O)[C@]5(C)[C@@H](C7=CC(=O)OC7)CC[C@]65O)C4)O[C@@H]3C)O[C@@H]2C)O[C@H](C)[C@H]1O[C@@H]1O[C@H](CO)[C@@H](O)[C@H](O)[C@H]1O [LANATOSIDE C]	UniProt P31645	> 30 µM
NCCc1ccc(O)cc1 [TYRAMINE]	UniProt P31645	> 30 µM
CC1(C)S[C@@H]2[C@H](NC(=O)[C@H](NC(=O)N3CCN(S(C)(=O)=O)C3=O)c3ccccc3)C(=O)N2[C@H]1C(=O)O [MEZLOCILLIN]	UniProt P31645	> 30 µM
CO/N=C(\C(=O)N[C@@H]1C(=O)N2C(C(=O)[O-])=C(C[n+]3cccc4c3CCC4)CS[C@H]12)c1csc(N)n1 [CEFPIROME]	UniProt P31645	> 30 µM
N[C@@H](CSSC[C@H](N)C(=O)O)C(=O)O [CYSTINE]	UniProt P31645	> 30 µM
CCCCCCCCCCCCCCCC(=O)OC/C=C(C)/C=C/C=C(C)/C=C/C1=C(C)CCCC1(C)C [VITAMIN A PALMITATE]	UniProt P31645	> 30 µM
COC(=O)C1=C(C)NC(C)=C(C(=O)O[C@H]2CCN(Cc3ccccc3)C2)[C@H]1c1cccc([N+](=O)[O-])c1 [BARNIDIPINE]	UniProt P31645	13.6 µM
c1cc(CN2CCCNCCNCCCNCC2)ccc1CN1CCCNCCNCCCNCC1 [PLERIXAFOR]	UniProt P31645	> 30 µM
C[C@]12CC[C@@H]3c4ccc(O)cc4CC[C@H]3[C@@H]1CC[C@@H]2OC(=O)CCC1CCCC1 [ESTRADIOL CYPIONATE]	UniProt P31645	> 30 µM
CN(C)CCC(c1ccccc1)c1ccccn1 (configuration not stated) [PHENIRAMINE]	UniProt P31645	7.98 µM
Nc1nc(N)nc(Nc2ccc([As]3SCC(CO)S3)cc2)n1 (configuration not stated) [MELARSOPROL]	UniProt P31645	> 30 µM
CNC(=O)c1cc(Oc2ccc(NC(=O)Nc3ccc(Cl)c(C(F)(F)F)c3)c(F)c2)ccn1 [REGORAFENIB]	UniProt P31645	> 30 µM
Oc1c(I)cc(Cl)c2cccnc12 [CLIOQUINOL]	UniProt P31645	> 30 µM
CN1CCC[C@@H]1Cc1c[nH]c2ccc(CCS(=O)(=O)c3ccccc3)cc12	UniProt P31645	> 30 µM
Cc1onc(-c2c(Cl)cccc2Cl)c1C(=O)N[C@@H]1C(=O)N2[C@@H]1SC(C)(C)[C@@H]2C(=O)O [DICLOXACILLIN]	UniProt P31645	> 30 µM
CC[N+](C)(CC)CCOC(=O)C1c2ccccc2Oc2ccccc21 [METHANTHELINE]	UniProt P31645	> 30 µM
CN(C)CCN(Cc1ccc(Cl)cc1)c1ccccn1 [CHLOROPYRAMINE]	UniProt P31645	0.0202 µM
CCCCCCCCCCCCCCCCCC(=O)NCCCC[C@H](NC(=O)CC[C@@H](NC(=O)[C@H](C)NC(=O)[C@@H](C)O[C@H]1[C@H](O)[C@@H](CO)OC(O)[C@@H]1NC(C)=O)C(N)=O)C(=O)O (some centres not stated) [ROMURTIDE]	UniProt P31645	> 30 µM
O=C(O)c1cc(=O)c2ccccc2o1 [CHROMOCARB]	UniProt P31645	> 30 µM
CN(C)c1cc(CNCC(C)(C)C)c(O)c2c1C[C@H]1C[C@H]3[C@H](N(C)C)C(O)=C(C(N)=O)C(=O)[C@@]3(O)C(O)=C1C2=O [OMADACYCLINE]	UniProt P31645	> 30 µM
O=C(Nc1nc(-c2cc(Cl)cs2)c(N2CCN(C3CCCCC3)CC2)s1)c1cnc(N2CCC(C(=O)O)CC2)c(Cl)c1 [AVATROMBOPAG]	UniProt P31645	> 30 µM
CCN(CC)CCOC(=O)C(Cc1cccc2ccccc12)CC1CCCO1 (configuration not stated) [NAFRONYL]	UniProt P31645	28.4 µM
